Biological target: Corticotropin-releasing factor receptor 2/Corticotropin-releasing factor-binding protein (Homo sapiens, UniProt P24387+Q13324)
Sequence (Q13324 whole entry): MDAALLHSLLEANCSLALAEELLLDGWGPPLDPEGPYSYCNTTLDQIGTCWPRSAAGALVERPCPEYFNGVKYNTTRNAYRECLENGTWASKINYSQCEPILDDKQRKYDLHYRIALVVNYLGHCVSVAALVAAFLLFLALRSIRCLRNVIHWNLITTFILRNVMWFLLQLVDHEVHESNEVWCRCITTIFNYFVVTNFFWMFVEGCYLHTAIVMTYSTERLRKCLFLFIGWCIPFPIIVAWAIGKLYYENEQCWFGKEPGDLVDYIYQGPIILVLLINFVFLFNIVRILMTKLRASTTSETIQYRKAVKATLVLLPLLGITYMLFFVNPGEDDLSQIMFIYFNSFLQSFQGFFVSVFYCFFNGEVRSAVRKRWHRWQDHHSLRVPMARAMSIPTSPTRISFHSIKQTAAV
Sequence (P24387 whole entry): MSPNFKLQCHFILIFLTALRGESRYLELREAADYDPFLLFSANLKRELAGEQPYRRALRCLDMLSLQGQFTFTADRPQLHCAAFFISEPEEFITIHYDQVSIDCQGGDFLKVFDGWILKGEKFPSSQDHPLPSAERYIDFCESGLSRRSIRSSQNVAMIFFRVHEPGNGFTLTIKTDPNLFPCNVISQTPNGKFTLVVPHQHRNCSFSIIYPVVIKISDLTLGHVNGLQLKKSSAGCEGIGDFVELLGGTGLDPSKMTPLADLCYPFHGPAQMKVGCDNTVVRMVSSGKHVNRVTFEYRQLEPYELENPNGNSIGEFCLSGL
Assay: activators of CRF receptor 2 with binding protein – uHTS hits, confirmation (AID 602473)
Format: functional
Details: read-out: EC50_Mean
Activity calls are given as the source filed them.
Classes to choose from: 1 for active, -1 for inactive

Example entries and their recorded answers appear below.
INSERT INTO measurements (compound, classification) VALUES
  ('O=C(O)c1ccc(-n2ncc3c2/C(=C/c2cccc([N+](=O)[O-])c2)CC3)cc1', -1),
  ('CN1CCc2c(sc(/N=C/c3cccs3)c2C(N)=O)C1', -1),
  ('CCCCCCn1c(=O)c(F)cn(Cc2ccc(OC)c([N+](=O)[O-])c2)c1=O', -1),
  ('COC(=O)c1ccc(NC(=O)COC(=O)CSc2nc(C)cc(C)n2)cc1', -1),
  ('COCC(C)n1c(SCc2ccc(C(=O)OC)o2)nc2ccccc2c1=O (stereo not given)', -1);

Now, please, on to the next compound.
Recorded call for Cc1nn(C)cc1C(C(=O)NC1CCCCC1)N(C(=O)Cc1cccs1)c1ccc(Cl)cc1 (stereo not given) ?
1

* * *

target: Cytochrome P450 3A4 (Homo sapiens, UniProt P08684); conditions: Potency;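 also: confirmatory qHTS run detecting inhibitors and substrates of CYP3A4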
Sequence (P08684 whole entry): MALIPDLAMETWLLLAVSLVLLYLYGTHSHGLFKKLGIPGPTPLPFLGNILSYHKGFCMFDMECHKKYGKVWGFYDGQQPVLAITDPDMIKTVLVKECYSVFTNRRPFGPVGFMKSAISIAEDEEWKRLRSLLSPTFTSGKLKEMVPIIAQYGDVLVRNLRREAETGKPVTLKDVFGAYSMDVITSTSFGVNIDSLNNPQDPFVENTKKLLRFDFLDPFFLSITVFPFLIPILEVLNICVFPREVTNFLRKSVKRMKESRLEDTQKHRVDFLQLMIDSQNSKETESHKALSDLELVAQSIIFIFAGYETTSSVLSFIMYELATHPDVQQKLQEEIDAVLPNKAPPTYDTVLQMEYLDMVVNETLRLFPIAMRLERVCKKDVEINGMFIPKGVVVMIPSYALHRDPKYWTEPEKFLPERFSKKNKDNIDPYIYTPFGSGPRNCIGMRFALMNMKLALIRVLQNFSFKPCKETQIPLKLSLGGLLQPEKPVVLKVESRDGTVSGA
metric-name: AC50

Illustrative cases are given below, each with its answer.
INSERT INTO results (molecule, result) VALUES
  ('COC1C=CC23c4cc5c(cc4CN(CC2O)C3C1)OCO5 (stereo unspecified)', '39.8 µM (inconclusive)'),
  ('COc1cccc2oc(-c3ccccc3)cc(=O)c12', '31.6 µM (inconclusive)'),
  ('COC(=O)c1ccc(C(/C=C/[C@@H](C)C(=O)N(C)C)NC(=O)OCc2ccccc2)cc1 (stereo partly specified)', '10 µM (inconclusive)'),
  ('COc1c2ccoc2nc2c(OC)c(OCC(O)C(C)(C)O)ccc12 (stereo unspecified)', '15.8 µM (inconclusive)');

Item: COC(=O)c1c(C)cc(O)cc1O [METHYL ORSELLINATE] | AC50: 12.6 µM (inconclusive)

Item: CC1(C)CC[C@]2(C(=O)O)CC[C@@]3(C)C(=CCC4[C@@]5(C)CCC(O)[C@@](C)(CO)C5CC[C@@]43C)C2C1 (stereo partly specified) | AC50: 12.6 µM (inconclusive)

* * *

target: RNA-binding protein pos-1 (Caenorhabditis elegans, UniProt G5EF15); assay: disruptors of C. elegans POS-1 RNA interaction – biochemical, fluorescence polarization, dose response (AID 1964);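 also: purified POS-1 fused to maltose binding protein made in E. coli; potency of compounds blocking POS-1 binding to fluorescent RNA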
Sequence (G5EF15 whole entry, the tested form may be a part): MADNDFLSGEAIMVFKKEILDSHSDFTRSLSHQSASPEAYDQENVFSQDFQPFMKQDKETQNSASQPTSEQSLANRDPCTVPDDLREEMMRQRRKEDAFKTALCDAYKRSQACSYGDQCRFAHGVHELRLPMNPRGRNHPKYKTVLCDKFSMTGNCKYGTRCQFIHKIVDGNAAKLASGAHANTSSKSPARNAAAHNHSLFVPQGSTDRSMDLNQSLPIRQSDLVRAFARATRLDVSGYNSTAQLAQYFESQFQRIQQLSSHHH
The source made the active and inactive calls.
metric-name: EC50

INSERT INTO measurements (molecule, result) VALUES
  ('N#CC(C#N)=Cc1ccc(NC(=O)c2ccc(Br)cc2)cc1', '> 300 µM (not active)'),
  ('CC1(C)CC2=Nc3ccccc3SC2=C(O)C1', '43.9 µM (active)'),
  ('CC(C)(C)N=C(S)NCCc1ccccc1', '> 300 µM (inconclusive)'),
  ('CC1(OC(=O)C2CCCC2)C(=O)C=C2C=C(c3ccsc3)OC=C2C1=O (configuration not stated)', '47.8 µM (active)'),
  ('COC(=O)CCC(=O)OC1(C)C(=O)C2=CN(CCCOC(C)C)C(c3ccc(OC)cc3)=CC2=C(Br)C1=O (configuration not stated)', '46.9 µM (active)');

Item: CCOC(=O)C1Nc2ccc(OC(F)(F)F)cc2C2C=CCC12 (configuration not stated) | EC50: > 300 µM (not active)

Item: Cc1cc(C)cc(N2C(=O)/C(=C/Nc3ccc(N4CCOCC4)cc3)C(=O)NC2=S)c1 | EC50: 7.92 µM (active)

Item: N=c1c(S(=O)(=O)c2ccc(Cl)cc2)cc2c(=O)n3ccccc3nc2n1C1CCCC1 | EC50: 135 µM (active)

Item: Cc1cc(C(=O)O)ccc1-c1ccc(/C=C2\NC(=O)N(Cc3ccc(F)cc3)C2=O)o1 | EC50: 195 µM (active)

Item: O=C1OCc2cc(-n3cccc3)ccc21 | EC50: > 300 µM (not active)

* * *

target: Polyadenylate-binding protein 1 (Homo sapiens, UniProt P11940); test: MLLE binding blockers, Cy5 peptide tracer – biochemical, fluorescence polarization, Cy5-PAM2 peptide, secondary, miRNA deadenylation inhibitor project, dose response (AID 602260); assay type: functional; details: read-out: IC50_Mean
Sequence (P11940 whole entry): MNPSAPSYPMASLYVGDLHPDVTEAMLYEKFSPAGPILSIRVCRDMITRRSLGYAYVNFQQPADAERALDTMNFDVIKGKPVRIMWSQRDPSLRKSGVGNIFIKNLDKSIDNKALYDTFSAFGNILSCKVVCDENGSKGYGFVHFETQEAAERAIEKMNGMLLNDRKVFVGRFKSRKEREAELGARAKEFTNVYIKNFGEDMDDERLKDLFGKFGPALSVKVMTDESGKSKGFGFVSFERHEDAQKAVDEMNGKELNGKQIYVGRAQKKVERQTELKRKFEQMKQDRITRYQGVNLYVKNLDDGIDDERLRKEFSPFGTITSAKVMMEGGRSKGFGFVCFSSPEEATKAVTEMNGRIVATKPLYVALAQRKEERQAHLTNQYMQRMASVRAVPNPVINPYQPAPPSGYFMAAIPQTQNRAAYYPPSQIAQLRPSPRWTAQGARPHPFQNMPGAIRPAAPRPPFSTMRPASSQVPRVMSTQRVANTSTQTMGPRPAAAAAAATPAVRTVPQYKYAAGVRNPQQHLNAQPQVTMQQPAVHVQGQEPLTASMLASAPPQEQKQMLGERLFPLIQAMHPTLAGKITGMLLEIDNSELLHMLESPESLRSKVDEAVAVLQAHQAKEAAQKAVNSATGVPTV
Activity calls are given as the source filed them.
Measured IC50 accompanies every entry in the list below.

Illustrative cases are given below, each with its answer.
INSERT INTO assay_data (molecule, result) VALUES
  ('CN(C)c1nc2n(c(=O)n1)C(C#N)CS2 (stereo not drawn)', '> 66 µM (inactive)'),
  ('Cc1cc(C)n2cc(CSc3nnc(N)s3)nc2n1', '> 66 µM (inactive)');

For the next question, use this molecule.
Record CCc1cccc(CC)c1NC(=O)CSc1nnc(CCC(=O)O)c(O)n1 / Polyadenylate-binding protein 1 (Homo sapiens, UniProt P11940), IC50 recorded as > 66 µM (inactive)

* * *

Measured EC50 accompanies every entry in the list below.
system: BJ; test: BJ-TERT-LT-ST fibroblast viability loss – cell-based, RAS-independent, luminescence, dose response (AID 1935); format: functional; settings: Homo sapiens;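 also: BJ fibroblasts immortalized with TERT plus LT and ST oncogenes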
The source made the active and inactive calls.

Illustrative cases are given below, each with its answer.
INSERT INTO assay_data (molecule, result) VALUES
  ('Cc1ccc(C(=O)c2cc([N+](=O)[O-])ccc2N2CC(C)OC(C)C2)cc1 (stereo not given)', '16.7 µM (active)'),
  ('COc1cc2c(c(OC)c1OC)-c1ccc(OC)c(=O)cc1C(NC(C)=O)CC2 (stereo not given)', '0.249 µM (active)'),
  ('CCN(CC)c1ccc(/C=C/c2cccc[n+]2C)c(OC)c1', '13.7 µM (inconclusive)'),
  ('COc1cc(SC)ccc1C(=O)NNC(=O)c1cc(C)oc1C', '18.2 µM (active)');

For the next question, use this molecule.
Item: C[S+]([O-])c1nc(-c2ccc(Br)cc2)cc(-c2ccccc2)c1C#N (stereo not given) | EC50: 2.41 µM (active)

* * *

molecular target: Corticotropin-releasing factor receptor 2/Corticotropin-releasing factor-binding protein (Homo sapiens, UniProt P24387+Q13324); test: Dose Response confirmation of uHTS hits for small molecule antagonists of the CRF-binding protein and CRF-R2 receptor complex.; type: functional; settings: read-out: IC50_Mean
The source made the active and inactive calls.
Measured IC50 accompanies every entry in the list below.

Illustrative cases are given below, each with its answer.
INSERT INTO results (compound, result) VALUES
  ('O=C(COc1ccc(Cl)cc1Cl)Nc1ccccc1NS(=O)(=O)c1cccs1', '> 47.1 µM (inactive)'),
  ('CSc1nc2cc(Cl)ccc2s1', '> 47.1 µM (inactive)'),
  ('COC(=O)c1ccc(NC(=O)COC(=O)CSc2nc(C)cc(C)n2)cc1', '> 47.1 µM (inactive)'),
  ('C=C(C)CSc1nc2c(cc1C#N)CCC2', '> 47.1 µM (inactive)'),
  ('Cc1ccn(C(=O)c2ccc(NC(=O)C3CCCCC3)cc2)n1', '> 47.1 µM (inactive)');

For the next question, use this compound.
Item: Cc1cc(NC(=O)CN2C(=O)NC(CC(C)C)C2=O)no1 (stereo unspecified) | IC50: > 47.1 µM (inactive)

Value source: ChEMBL document CHEMBL1201862
